test-summary: A quantitative high throughput screen for small molecules that induce DNA re-replication in SW480 colon adenocarcinoma cells. Note: nearly all actives have a fitted effect of over 55% in size. Note: potency is the fitted concentration of half-maximal effect.
test-settings: Hoechst DNA content imaging, 48 h; series mostly up to 46.1 µM
Out of some 340,000 compounds screened, about 6,200 (1.8%) were called active. Another 10% or so got no clear call; they are omitted. Shown is part of a subset that was picked to be rich in actives.
observation-type: Potency

Use the examples below as a reference point.
molecule	Potency
CC(=O)NC(=O)c1ccccc1O	inactive
O=C(OCCOc1ccccc1Cl)c1cc(S(=O)(=O)N2CCCCC2)ccc1N1CCOCC1	inactive
O=C(COC(=O)C1CCCO1)Nc1nc(-c2ccc(F)cc2)cs1 (stereo unspecified)	inactive
CC12CCC(C(=O)N(NC(=O)c3ccccc3O)C1=O)C2(C)C (stereo unspecified)	20.6 µM (active)
CCCCN(C(=O)c1cccc(N2C(=O)c3ccccc3C2=O)c1)c1c(N)n(CCCC)c(=O)[nH]c1=O	inactive

Next item in the queue.
Fill blank: measured Potency of the molecule COc1ccc2c(c1)c(=Cc1ccc(N(C)C)cc1)c1cc(-c3ccccc3)[n+](C)n12 is ____.
inactive

---

test-summary: A quantitative high throughput screen for small molecules that induce DNA re-replication in SW480 colon adenocarcinoma cells. Note: nearly all actives have a fitted effect of over 55% in size.
test-settings: Hoechst DNA content imaging, 48 h; series mostly up to 46.1 µM
Among all 340,000 compounds or so, about 6,200 (1.8%) were called active. About 10% were inconclusive and are not listed. This is one part of a sample in which actives are shown more often than they occur.
observation-type: outcome

molecule	recorded-measurement
O=C(Nc1ccc(S(=O)(=O)N2CCOCC2)cc1)C1CCN(S(=O)(=O)c2ccc(Cl)cc2)CC1	inactive
COc1ccc(C2NCCCC2c2ccccc2)cc1 (centres undefined)	inactive
Cc1c(C(=O)Nc2ccccn2)oc2ccc(Br)cc12	inactive
CNC(=O)COC(=O)c1cc(-c2ccc(OC)cc2)nc2ccccc12	inactive

---

Readings of re-replication activation for the listed molecules
test-summary: A quantitative high throughput screen for small molecules that induce DNA re-replication in SW480 colon adenocarcinoma cells. For re-replication activation: % of control where 0% means no effect. Note: nearly all actives have a fitted effect of over 55% in size.
test-settings: Hoechst DNA content imaging, 48 h; series mostly up to 46.1 µM
The campaign covered roughly 340,000 compounds. About 6,200 (1.8%) were called active. Another 10% or so got no clear call; they are omitted. The list comes from a sample in which actives are over-represented; it also holds close analogues and randomly drawn compounds.

Guide cases for re-replication activation, answers given:
molecule	re-replication activation
COc1ccc(CN2C(CC(=O)Nc3cccnc3)c3ccc(C(F)(F)F)cc3S2(=O)=O)cc1 (stereo unspecified)	-6.2% [at 9.22 µM] (inactive)
CC[C@]1(C(=O)OC)[C@H]2C(=O)N(Cc3ccccc3)C(=O)[C@H]2[C@H]2CN=C(SCc3ccc(C#N)cc3)N21	-4.58% [at 9.22 µM] (inactive)
CN(C(=O)c1cccc(NC(=O)Cc2ccc(NC(=O)C3CCN(C(=O)C4CCCCC4)CC3)cc2)c1)C1CCC1	10.8% [at 9.22 µM] (inactive)
CCOc1cc2c(cc1OCC)C(C(=O)O)C(c1ccc(OC)c(O)c1)N(C)C2=O (stereo unspecified)	-13.5% [at 9.22 µM] (inactive)
CC[C@]12c3[nH]c4cc(CCC(=O)N(C)C)ccc4c3CCN1C(=O)[C@@H](CC(=O)NCC13CC4CC(CC(C4)C1)C3)C[C@@H]2C(=O)N1CCN(C(=O)C2CC2)CC1	-2.17% [at 9.22 µM] (inactive)

Here is another molecule to look at.
Need re-replication activation, item COc1ccc(S(=O)(=O)N2C[C@H]3CON(C)[C@H]3C[C@H]2c2cccc(Br)c2)cc1
-5.21% [at 9.22 µM] (inactive)

---

test-summary: A quantitative high throughput screen for small molecules that induce DNA re-replication in SW480 colon adenocarcinoma cells. Note: nearly all actives have a fitted effect of over 55% in size.
test-settings: Hoechst DNA content imaging, 48 h; series mostly up to 46.1 µM
Among all 340,000 compounds or so, about 6,200 (1.8%) were called active. Inconclusive results (about 10%) are left out. The call rests on the fitted dose curve; in most records, active means well fitted activation curve with a large enough effect; inconclusive means small, poorly fitted or top-dose-only effect; inactive means no such curve, though single readings can be large or run the other way. The sample holds actives, similar compounds and a random draw of the others, so the mix is not that of the screen.
Reply using exactly one outcome from y = active, n = inactive

Recorded results for 5 compounds are shown here.
compound	label-value
COc1cc(C2/C(=C(\O)c3ccc4c(c3)CC(C)O4)C(=O)C(=O)N2Cc2ccco2)ccc1O (configuration not stated)	y
O=C(CN1C(=O)/C(=C\c2ccccc2F)SC1=S)Nc1nc2ccccc2s1	n
CC/C(=C\c1ccc(Cl)cc1)c1ccncc1	n
CCOc1cccc(SCc2noc(C(=O)NC(C)C)c2C(=O)O)c1	n
COc1ccc(-c2cc(C(=O)NCCCn3ccnc3)no2)cc1	n

Called result for O=C(Cn1cnc2ccccc2c1=O)NNC(=O)c1ccccc1F
n

What did the test return for COc1cc(OC)c2c(-c3cccc(-c4cccc(N)c4)c3)cc(=O)oc2c1 ?
y

---

test-summary: A quantitative high throughput screen for small molecules that induce DNA re-replication in SW480 colon adenocarcinoma cells. Note: nearly all actives have a fitted effect of over 55% in size.
test-settings: Hoechst DNA content imaging, 48 h; series mostly up to 46.1 µM
In all, about 340,000 compounds went through this assay and about 6,200 (1.8%) were called active. About 10% were inconclusive and are not listed. What follows is part of a selection rich in actives, with near analogues and random picks from the rest.
observation-type: outcome

compound	observation-type	recorded-measurement
Cc1ccc2nc(-c3cccnc3)c(NC3CCCC3)n2c1	outcome	inactive
Cc1ccc(COc2ccc(/C=N/NC(=O)CN3CCCCC3)cc2)cc1	outcome	inactive
COc1ccc(S(=O)(=O)N(C)C[C@H]2Oc3c(NC(=O)Nc4ccc5c(c4)OCO5)cccc3C(=O)N([C@H](C)CO)C[C@@H]2C)cc1	outcome	inactive
CC1CCCN(C(=O)Cn2c(=O)oc3cc(S(=O)(=O)N4CCCCC4C)ccc32)C1 (centres undefined)	outcome	inactive

---

test-summary: A quantitative high throughput screen for small molecules that induce DNA re-replication in SW480 colon adenocarcinoma cells. Note: nearly all actives have a fitted effect of over 55% in size.
test-settings: Hoechst DNA content imaging, 48 h; series mostly up to 46.1 µM
Out of some 340,000 compounds screened, about 6,200 (1.8%) were called active. Roughly 10% stayed inconclusive and do not appear here. Calls come from the whole dose curve; as a rule, active = well fitted activation curve with a large enough effect; inconclusive = small, poorly fitted or top-dose-only effect; inactive = no such curve, though single readings can be large or run the other way. For the sample, actives were picked, then their nearest neighbours and some compounds at random.
The categories you may choose from are true for active, false for inactive

Field: example entries. Status: answers known.
molecule	label-value
Cc1cn(COC/C=C/c2ccccc2)c(=O)[nH]c1=O	false
COc1cc(/C=N/NC(=O)c2cc(-c3ccccc3C)nc3ccccc23)cc(OC)c1O	false
CCOc1ccc2nc(Nc3nc4ccc(NC(C)=O)cc4s3)sc2c1	true
CC(NC(=O)c1ccccc1)C(=O)Nc1ccccc1 (stereo not given)	false
O=C(NCCc1ccccc1)c1c[nH]c2ccc(F)cc2c1=O	false

What call does the record list for CC1(C)CC(=O)C=C(Nc2ccccc2)C1 ?
false

Which outcome was assigned to Cn1c(NC(=O)c2ccccc2)nc2ccccc21 in this test?
false

What call does the record list for CC1(C)CC(=O)C(C2c3ccccc3S(=O)(=O)c3ccccc32)C(=O)C1 ?
true

Entry COc1ccc(/C=C2\N=C3CCCN3C2=O)cc1 : call = ?
false

Could you please tell me the result logged for CCOC(=O)C1=C(C)c2ccccc2OC1C(=O)OCC (stereo not given) in this assay?
false

---

test-summary: A quantitative high throughput screen for small molecules that induce DNA re-replication in SW480 colon adenocarcinoma cells. Note: nearly all actives have a fitted effect of over 55% in size.
test-settings: Hoechst DNA content imaging, 48 h; series mostly up to 46.1 µM
Out of some 340,000 compounds screened, about 6,200 (1.8%) were called active. Inconclusive results (about 10%) are left out. The call rests on the fitted dose curve; in most records, active means well fitted activation curve with a large enough effect; inconclusive means small, poorly fitted or top-dose-only effect; inactive means no such curve, though single readings can be large or run the other way. Many of the other results were omitted from the sample, so actives are more common in it than they were.
Your response should consist of one outcome taken from active, inactive

Solved cases below.
compound	label-value
O=C1C(Cl)=C(Oc2ccccc2)C(=O)c2ccccc21	active
Cc1cc([N+](=O)[O-])c(=O)[nH]c1C	inactive
COc1ccccc1C(=O)CSc1cccc[n+]1[O-]	inactive

Recorded test outcome, item CN1C(c2ccc(F)cc2)=CS/C1=C(/C#N)c1nnc2n1-c1ccccc1SC2
inactive

Assay outcome for CC1CCN(C2=NC(=O)/C(=C/c3ccc(O)cc3)S2)CC1 : what was it?
inactive

---

test-summary: A quantitative high throughput screen for small molecules that induce DNA re-replication in SW480 colon adenocarcinoma cells. Note: nearly all actives have a fitted effect of over 55% in size.
test-settings: Hoechst DNA content imaging, 48 h; series mostly up to 46.1 µM
Source text: H Molecular Libraries Probe Production Network [MLPCN] NIH Chemical Genomics Center [NCGC] […] To identify compounds that induce re-replication in normal cells, an image-based assay was used to measure DNA content of nuclei, as detected by the fluorescent DNA binding dye, Hoechst. Cell nuclei were imaged by a fluorescence scanning plate imager and compounds that induce DNA re-replication were identified by the increase of nuclei with elevated fluorescence intensity […]
The whole screen tested about 340,000 compounds, of which about 6,200 (1.8%) were called active. Not shown: some 10% with an inconclusive outcome. Calls come from the whole dose curve; as a rule, active = well fitted activation curve with a large enough effect; inconclusive = small, poorly fitted or top-dose-only effect; inactive = no such curve, though single readings can be large or run the other way. The sample as a whole holds a higher share of actives than the screen did.
Give your call using only these classes: active, inactive

Use the examples below as a reference point.
molecule	label-value
CC(CN1CCCCC1)c1ccccc1 (stereo not drawn)	active
C[n+]1cccc(C(=O)O)c1	inactive

So what was the verdict on COc1cc(OC)cc(C(=O)N[C@H](C(=O)NNC(=O)c2ccc(Br)cc2)C(C)C)c1 in this test?
inactive
